system: MDA-MB-231; assay: NCI tumour cell line growth inhibition, 48 h
Active and inactive are the calls of the source. No stated cut-off is given here; in the data, active = GI50 up to about 1.1 µM and inactive = higher.
Consider the following compounds and their measured GI50 readings.

Use the examples below as a reference point.
O=C1Nc2ccccc2/C1=N/Nc1nc(-c2cccc([N+](=O)[O-])c2)cs1    17.7 µM (inactive)
O=C1Nc2ccccc2/C1=N/NC(=S)Nc1ccc([N+](=O)[O-])cc1    0.208 µM (active)
O=[N+]([O-])/C(C(Cl)=C(Cl)Cl)=C(/Sc1ccccc1)N1CCOCC1    5.12 µM (inactive)

Item under review: Nc1ccc(C(=O)CC(N)C(=O)O)cc1O (stereo not drawn) . Reported GI50? > 100 µM (inactive)

Item under review: Cc1ccc(S(=O)(=O)OC2CN3CCC2CC3)cc1 (stereo not drawn) . Reported GI50? > 100 µM (inactive)

Item under review: C/C(=N\NC(N)=S)c1nc2cccnc2[nH]1 . Reported GI50? > 70.1 µM (inactive)

Item under review: O=P(O)(O)CN1CCNCCN(CP(=O)(O)O)CCNCC1 . Reported GI50? > 100 µM (inactive)

Item under review: CN(CC(=O)O)c1ncc2c(n1)-c1ccccc1OC2 . Reported GI50? > 100 µM (inactive)

Item under review: S=C1N=C(Cl)/C(=C\c2ccco2)N1 . Reported GI50? > 100 µM (inactive)

Item under review: CCc1nnc2sc(-c3ccc(-c4ccccc4[N+](=O)[O-])o3)nn12 . Reported GI50? 53.1 µM (inactive)

Item under review: O=C1Nc2cccc(Cl)c2/C1=C\c1c(-c2ccccc2)nc2n1CCS2 . Reported GI50? 20.7 µM (inactive)

Item under review: CN(/N=C/c1ccccc1O)c1ccc2ccccc2n1 . Reported GI50? 29.8 µM (inactive)

Item under review: CCCS(=O)(=O)Nc1ccc(Nc2c3ccccc3nc3ccccc23)c(OC)c1 . Reported GI50? 3.32 µM (inactive)
